B1: USP39 (parent)
chain: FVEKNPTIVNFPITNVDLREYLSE

# Variants of: B1
# MEASUREMENT_NOTES: protein stability index of a GFP-peptide fusion (GPS, HEK-293T) (PSI 1-6); higher = more stable;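 note: lentivirally expressed fusions sorted by FACS into six bins by GFP to DsRed ratio, PSI derived from sequencing read proportions per bin multiplied by bin number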
# PARTICULARS: c terminus: a fixed tail appended
// label = satisfied if protein stability index is not less than 2, otherwise not satisfied

Sample answers from the record:
# MUTATION_NOTATION, QUALITATIVE_LABEL
records = [
    ("L22C", "not satisfied"),
    ("F11E", "satisfied"),
    ("K4T", "satisfied"),
    ("L22S", "satisfied"),
    ("D17P", "not satisfied"),
    ("L22R", "not satisfied"),
]

Prompt line: Does F1L have a reported protein stability index of at least 2?
Response line: satisfied

Prompt line: Does I8S have a reported protein stability index of at least 2?
Response line: satisfied

Prompt line: Does T14V have a reported protein stability index of at least 2?
Response line: satisfied

Prompt line: Does E3Q have a reported protein stability index of at least 2?
Response line: not satisfied

Prompt line: Does K4A have a reported protein stability index of at least 2?
Response line: not satisfied

Prompt line: Does P12C have a reported protein stability index of at least 2?
Response line: not satisfied

Prompt line: Does S23I have a reported protein stability index of at least 2?
Response line: satisfied

Prompt line: Does S23N have a reported protein stability index of at least 2?
Response line: not satisfied

Prompt line: Does E3A have a reported protein stability index of at least 2?
Response line: not satisfied

Prompt line: Does S23H have a reported protein stability index of at least 2?
Response line: satisfied

Prompt line: Does R19G have a reported protein stability index of at least 2?
Response line: not satisfied

Prompt line: Does D17Y have a reported protein stability index of at least 2?
Response line: not satisfied

Prompt line: Does E20S have a reported protein stability index of at least 2?
Response line: satisfied

Prompt line: Does F11L have a reported protein stability index of at least 2?
Response line: not satisfied

Prompt line: Does V2W have a reported protein stability index of at least 2?
Response line: satisfied

Prompt line: Does T14S have a reported protein stability index of at least 2?
Response line: satisfied

Prompt line: Does R19V have a reported protein stability index of at least 2?
Response line: not satisfied

Prompt line: Does Y21M have a reported protein stability index of at least 2?
Response line: not satisfied

Prompt line: Does N15A have a reported protein stability index of at least 2?
Response line: not satisfied
